Taken from patent US20190127480A1.

target: T1, Soluble heterodimeric CD3 protein (hCD3-epsilon/hCD3-delta) with either a human Fc tag (hFcΔAdp/hFc) or a … (human, UniProt P07766 23-126; P04234 22-105); experiment: SPR Biacore 25C antigen-capture
T1 construct: also called hCD3ε/δ; not shown: Fc tag: human (hFcΔAdp/hFc)
T1 sequence (P07766 23-126 limits assumed, stated change not applied, chain 1 of 2): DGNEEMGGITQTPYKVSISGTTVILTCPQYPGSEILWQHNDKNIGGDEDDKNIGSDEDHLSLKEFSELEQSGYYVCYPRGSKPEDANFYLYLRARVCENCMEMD
T1 sequence (P04234 22-105 limits assumed, stated change not applied, chain 2 of 2): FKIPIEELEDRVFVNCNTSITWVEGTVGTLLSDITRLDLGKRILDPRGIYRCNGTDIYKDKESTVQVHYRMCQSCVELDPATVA
Recorded koff values for a group of binders are listed next.
Reported endpoint: koff (s⁻¹)

{"Binder": "H2M3563N (antibody, mouse IgG2, V domains shown, H2M: mouse IgG2 Fc, human variable regions; divalent) VH: EVHLVESGGGLVQPGRSLRLSCAASGFTFDDYTMHWVRQAPGKGLEWVSDISWNSGSIGYADSVKGRFTVSRDNAKNSLYLQMNSLRGEDTALYYCAKDMSGYGHYGKYGMDVWGQGTTVTVSS VL: DIQMTQSPSSLSASVGDRVTITCRASQSIRSYLNWYQQKPGKVPKLLIYAASSLQSGVPSRFSGSGSGTDFTLTINSLQPDDFATYYCQQTYSNPPITFGQGTRLEIK", "Reported endpoint": "koff", "Measurement units": "s⁻¹", "Measurement qualifier": "=", "Data value": "4.77e-05"}
{"Binder": "H1H5801B (antibody, human IgG1, V domains shown, H1H: human IgG1 Fc; divalent) VH: QVQLVQSGGGVVQPGGSLRLSCAASGFTFDDYAMHWVRQAPGKGLEWVSLISGDGGSTYYADSVKGRFTISRDNSKNSLYLQMNSLRTEDTALYYCAKDDSSSSWYYYYYGMDVWGRGTTVTVSS VL: DIQMTQSPSSLSASVGDRVTITCRASQRISSYLNWYQQKPGKAPKVLISVASSLQSGVPSRFSGSGSGTDFTLTISSLQPEDFASYYCQQSYNTPLTFGGGTKVEIKR", "Reported endpoint": "koff", "Measurement units": "s⁻¹", "Measurement qualifier": "=", "Data value": 0.00112}
{"Binder": "H2M3547N (antibody, mouse IgG2, V domains shown, H2M: mouse IgG2 Fc, human variable regions; divalent) VH: EAQLVESGGGLVQPGRSLRLSCTTSGFTFDDYTMHWVRQAPGKGLEWISDISWNGGTKGYADSVKGRFTISRDNAKNSLYLQMDSLRGEDTALYYCVKDKSGYGHFYFGLDVWGQGTTVTVSS VL: DIQMTQSPSSLTASVGDRVTFTCRASQSISRHLSWYQQKPGKAPKLLIYAASSLESGVPSRFSGSGSGTDFTLTISSLHPEDFATYYCQQSYSNPPITFGQGTRLEIK", "Reported endpoint": "koff", "Measurement units": "s⁻¹", "Measurement qualifier": "≤", "Data value": "1e-05"}
